Overview of reported IC50 across a group of molecules:
System: human breast adenocarcinoma cell line (MCF-7)
assay notes: MTT cytotoxicity assay on MCF-7
Assay type: cell-based
study conditions: Homo sapiens, MCF7; MTT, 24 h incubation
attribute measured: IC50

>>> result("Cc1ccc(-c2csc(=NNC(=O)COc3ccc4c(c3)CCCC4)n2-c2ccccc2)cc1 [Compound 4d]")
"71.8 µM"
>>> result("O=C(COc1ccc2c(c1)CCCC2)N/N=c1\\scc(-c2ccc(F)cc2)n1-c1ccccc1 [Compound 4h]")
"243 µM"
>>> result("COc1ccc(-c2csc(=NNC(=O)COc3ccc4c(c3)CCCC4)n2-c2ccccc2)cc1 [Compound 4e]")
"91.4 µM"
